Experiment: NCI Yeast Anticancer Drug Screen. Data for the cln2 rad14 strain (AID 165);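 further: 0% = growth equal to vehicle treated cultures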
Settings: S. cerevisiae cln2 rad14 strain, at 50.0 µM, active compounds read high
About 79,000 compounds went through this panel and 15% of them were active in at least one assay; those are over-represented in the sample as a whole.
measurement kind: growth inhibition (%)
Give just the number in %; leave the unit off.

Known growth inhibition results, listed for orientation:
NCCCN : -5.9
C=CCOC(=O)C(=O)OCC=C : 1.95

Next molecule, please.
Would you mind telling me what growth inhibition value was observed for CCCCC1(CC)COC(CCC)OC1 (centres undefined) ? -22.6

====

growth inhibition: recorded values
Assay: NCI Yeast Anticancer Drug Screen. Data for the bub3 strain (AID 167)
Conditions: S. cerevisiae bub3 mutant strain, at 50.0 µM, active compounds read high
About 79,000 compounds went through this panel and 15% of them were active in at least one assay; those are over-represented in the sample as a whole.
Give just the number in %; leave the unit off.

Cc1ccc(N)cc1[N+](=O)[O-] : 15.4

Would you mind telling me what growth inhibition value was observed for `COC(=O)c1ccc(C(C)C)cc1` ? 0.3

Would you mind doing `Cc1cc2nc(CC(=O)c3cccc([N+](=O)[O-])c3)c(=O)[nH]c2cc1C` as well? -6.15

====

Assay: NCI Yeast Anticancer Drug Screen. Data for the cln2 rad14 strain (AID 165);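 further: 0% = growth equal to vehicle treated cultures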
Conditions: S. cerevisiae cln2 rad14 strain, at 50.0 µM, active compounds read high
About 79,000 compounds went through this panel and 15% of them were active in at least one assay; those are over-represented in the sample as a whole.
measurement kind: growth inhibition (%)
Give just the number in %; leave the unit off.

Nc1ccc(N)c([N+](=O)[O-])c1 : -39
O=[N+]([O-])c1ccc(Sc2ccncn2)c([N+](=O)[O-])c1 : -5.55
CC1=CC(=O)c2ccccc2C1=O : 13.2

Would you mind telling me what growth inhibition value was observed for `N#C/C(=C\c1cc(O)c(O)c(O)c1)C(N)=O` ? 2.6

Would you mind doing `COc1cc2nn(-c3ccccc3N)nc2cc1OC` as well? 14.7

Would you mind doing CC(=O)OC(OC(C)=O)C1CCCO1 (centres undefined) as well? 17.1

Would you mind doing `Cc1cc2nc(CC(=O)c3ccccc3)c(=O)[nH]c2cc1C` as well? 9.4

Would you mind doing CC1(O)CCCCC1O (centres undefined) as well? -20.9

Would you mind doing `Cc1cc(N)c(S(=O)(=O)O)c(N)c1` as well? -15.1

====

Assay: NCI Yeast Anticancer Drug Screen. Data for the mlh1 rad18 strain (AID 175)
Settings: S. cerevisiae mlh1 rad18 strain growth inhibition; at 50.0 µM; active compounds read high
This is part of a sample that, as a whole, favours compounds with a hit. Of some 79,000 tested, about 15% had one in any assay.
growth inhibition: recorded values
Give just the number in %; leave the unit off.

Known growth inhibition results, listed for orientation:
CCOC(=O)/C(=C/c1ccc(OC)cc1)N(CC)CC : -20.4
C[C@@H](c1ccccc1)[C@@H](C(=O)O)c1ccccc1 : 29.7
Oc1ccc(Cc2ccccc2)c2cccnc12 : 34.6

Would you mind telling me what growth inhibition value was observed for `C/C(O)=C(\C=N\C(N)=S)C(=O)Nc1ccccc1` ? 3.7

Would you mind doing Oc1ccc2c(c1)OCC1(O)Cc3cc(O)c(O)cc3C21 (centres undefined) as well? -3.8

====

Assay: NCI Yeast Anticancer Drug Screen. Data for the bub3 strain (AID 167)
Settings: S. cerevisiae bub3 mutant strain, at 50.0 µM, active compounds read high
This is part of a sample that, as a whole, favours compounds with a hit. Of some 79,000 tested, about 15% had one in any assay.
measurement kind: growth inhibition (%)
Give just the number in %; leave the unit off.

Known growth inhibition results, listed for orientation:
O=C(Cc1ccc(OCc2ccccc2)cc1)NCc1ccc2c(c1)OCO2 : 17.5
C=C1CC/C=C(\C)C(=O)C[C@@H]2[C@@H]1CC2(C)C : 15.3
CCC(=O)Oc1ccc(OC)cc1 : 3.9
Cc1c(O)cccc1O : -8.2
COc1cc(C(=O)N/N=C/c2cccc([N+](=O)[O-])c2)cc(OC)c1OC : -39.2

Would you mind telling me what growth inhibition value was observed for `O=C(CCNNC(=O)c1ccncc1)NCc1ccccc1` ? -9.8

Would you mind doing `Cc1ncc(C#N)c(N)n1` as well? -3.05

Would you mind doing `O/N=C/c1ccc(O)cc1O` as well? 17.9

Would you mind doing `COc1ccccc1NC(=O)c1cc2cc(Br)ccc2cc1O` as well? 49

Would you mind doing `N#Cc1c(N)sc(=S)c2c1CCCC2` as well? -2.05

Would you mind doing `COC(=O)c1cc(-c2ccc(Cl)c(Cl)c2)[nH]c(=O)c1C#N` as well? -21.9

Would you mind doing `Cc1cc(N2CCC(N3CCCC3)CC2)nc(/N=C(\N)Nc2ccc(Cl)c(Cl)c2)n1` as well? 4

Would you mind doing `COc1cc(-c2ccc(NC(=O)NC3CC3)c(OC)c2)ccc1NC(=O)NC1CC1` as well? -25.2

Would you mind doing COc1cccc(/C=N/NC(=S)NC2CC3CCC2C3)c1O (centres undefined) as well? -13.9

Would you mind doing `CSc1[nH]c(=O)ncc1F` as well? -2.3

Would you mind doing CC(CC(=O)c1ccccc1)c1ccccc1 (centres undefined) as well? -19.4

====

Assay: NCI Yeast Anticancer Drug Screen. Data for the rad50 strain (AID 155);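 further: 0% = growth of vehicle-only cultures of the same strain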
Settings: S. cerevisiae rad50 strain growth inhibition; at 50.0 µM; active compounds read high
The panel holds about 79,000 compounds, 15% with a hit somewhere; the sample as a whole holds those more often.
growth inhibition: recorded values
Give just the number in %; leave the unit off.

CN(C)CCC(=O)c1ccc(O)cc1 : 4.6
CN(C)CCN(C)CC(C)(C)C(=O)/C=C/c1ccc(Cl)cc1 : 27.9
CC1Cc2ccccc2O1 (stereo unspecified) : 2.7
O=c1cc(-c2ccccc2)[nH]c(=S)[nH]1 : -13.4
Cc1cc(C)cc(NCCC#N)c1 : 15.5

Would you mind telling me what growth inhibition value was observed for `O=C(/C(=N/O)c1ccccc1)c1ccccc1` ? 7.4

Would you mind doing `CCOC(=O)c1[nH]c(C)c(C(C)=O)c1C` as well? -0.45

Would you mind doing `CN(C)c1ccc(C(c2ccc(O)cc2)c2ccc(N(C)C)cc2)cc1` as well? -10.4

Would you mind doing `Cc1ccc(O)c(C(=O)c2ccccc2)c1` as well? 4.3

Would you mind doing `O=C(CCl)N1CCN(C/C=C/c2ccccc2)CC1` as well? 8.15

====

growth inhibition: recorded values
Assay: NCI Yeast Anticancer Drug Screen. Data for the mlh1 rad18 strain (AID 175)
Details: S. cerevisiae mlh1 rad18 strain growth inhibition; at 50.0 µM; active compounds read high
The panel holds about 79,000 compounds, 15% with a hit somewhere; the sample as a whole holds those more often.
Give just the number in %; leave the unit off.

Would you mind telling me what growth inhibition value was observed for `N#CC1(Nc2ccc3c4c(cccc24)CC3)CCCCC1` ? 12.5

Would you mind doing `CCOC(=O)/C(C#N)=C/c1cccc(C)c1` as well? -6.55

Would you mind doing `O=c1cc(-c2ccccc2)[nH]c(=S)[nH]1` as well? -9.55

Would you mind doing CC1SC(N)=NC1=O (stereo not drawn) as well? 2.55

Would you mind doing `COc1ccc(OC)c(/C=C2\CCc3ccccc3C2=O)c1` as well? -23.6

Would you mind doing `CCc1ccc(/C(C#N)=C/C=C/c2ccccc2)cc1` as well? 14.7

Would you mind doing `O=C(CCNNC(=O)c1ccncc1)NCc1ccccc1` as well? 7.3

Would you mind doing `Cc1cc(C(C)(C)C)cc(C)c1Br` as well? -1.65

Would you mind doing `Nc1ccc(N=Nc2ccc(O)cc2)c(N)n1` as well? -4.7

Would you mind doing NC(CSC(c1ccccc1)(c1ccccc1)c1ccccc1)C(=O)O (stereo not drawn) as well? -42.2

====

Test: NCI Yeast Anticancer Drug Screen. Data for the mlh1 rad18 strain (AID 175)
Conditions: S. cerevisiae mlh1 rad18 strain growth inhibition; at 50.0 µM; active compounds read high
This is part of a sample that, as a whole, favours compounds with a hit. Of some 79,000 tested, about 15% had one in any assay.
measurement kind: growth inhibition (%)
Give just the number in %; leave the unit off.

Known growth inhibition results, listed for orientation:
CC1=NN(c2ccccc2)C(=O)/C1=C\N1CC(=O)NC1=S : -30.4
O=C(O)c1cccc([N+](=O)[O-])c1O : 14.4
CC(=O)Cc1ccc(-c2ccccc2)cc1 : 24.6
OCCN1CCOCC1 : 27.2
O=C(Nc1ccccc1)OCCc1ccccc1 : 34.2

Next compound, please.
Would you mind telling me what growth inhibition value was observed for `CN(C)CCC(=O)c1ccc(O)cc1` ? -9.45

====

growth inhibition: recorded values
Test: NCI Yeast Anticancer Drug Screen. Data for the sgs1 mgt1 strain (AID 161);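 further: 0% = growth of cultures given vehicle only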
Details: S. cerevisiae sgs1 mgt1 strain, at 50.0 µM, active compounds read high
Compounds without any hit were thinned out: in the full panel of roughly 79,000, 15% have a hit.
Give just the number in %; leave the unit off.

Known growth inhibition results, listed for orientation:
COc1cc2c(cc1O)CC[C@@H]1C2CC[C@@]2(C)C1CC[C@@H]2O (stereo partly specified) : -15.2
CSc1[nH]c(=O)ncc1F : 3.2
Nc1ccc(CC(=O)O)c(N)c1 : -4.6
CN(C)c1nc2c([nH]1)c(=O)n(C)c(=O)n2C : 2.2
Nc1nc(N)c(N=Nc2ccc(C(=O)O)cc2)c(N)n1 : 3
OCC(O)C(O)C(O)C(O)/C=N/O (stereo unspecified) : -6.4
CC(=Nc1ccccc1)C1=C(O)C(Cc2cccc(F)c2)NC1=O (stereo unspecified) : 13.6
COc1cc(/C=C(\C#N)C(=O)c2ccccc2)ccc1OCc1ccccc1 : -15.2

Next compound, please.
Would you mind telling me what growth inhibition value was observed for `OCCN1CCOCC1` ? 1.4
